Value source: patent US20230119539A1

PROTOCOL DETAILS: pH stability of quenched linker-payloads in buffers (LCMS)
Assay type: physicochemical
TEST PARAMETERS: DMSO, 4 Day, RT
READOUT NAME: percentage of the remaining compound (%)
Give bare numbers, in %.

CCCC1O[C@@H]2C[C@H]3[C@@H]4CCC5=CC(=O)C=C[C@]5(C)[C@H]4[C@@H](O)C[C@]3(C)[C@]2(C(=O)COC2CCCN2C(=O)CNC(=O)CCOCCOCCOCCOCCNC(=O)CCC(=O)N2Cc3ccccc3-c3c(nnn3CC3OC4OC5C(CO)OC(OC6C(CO)OC(OC7C(CO)OC(OC8C(CO)OC(OC9C(CO)OC(OC3C(O)C4O)C(O)C9O)C(O)C8O)C(O)C7O)C(O)C6O)C(O)C5O)-c3ccccc32)O1 (stereo partly shown) :: 100
CC(C)[C@H](NC(=O)CCOCCOCCOCCOCCNC(=O)CCC(=O)N1Cc2ccccc2-c2c(nnn2CCOCCOCCOCCOCCC(=O)NCCS(=O)(=O)O)-c2ccccc21)C(=O)N[C@@H](CCCNC(N)=O)C(=O)Nc1ccc(COC(=O)NCC(=O)NCOCC(=O)[C@@]2(O)[C@H](C)C[C@H]3[C@@H]4CCC5=CC(=O)C=C[C@]5(C)[C@@]4(F)[C@@H](O)C[C@@]32C)cc1 :: 100
CCCC1O[C@@H]2C[C@H]3[C@@H]4CCC5=CC(=O)C=C[C@]5(C)[C@H]4[C@@H](O)C[C@]3(C)[C@]2(C(=O)COCNC(=O)CNC(=O)CCC(=O)N2Cc3ccccc3-c3c(nnn3CC3OC4OC5C(CO)OC(OC6C(CO)OC(OC7C(CO)OC(OC8C(CO)OC(OC9C(CO)OC(OC3C(O)C4O)C(O)C9O)C(O)C8O)C(O)C7O)C(O)C6O)C(O)C5O)-c3ccccc32)O1 (stereo partly shown) :: 97

INPUT: Would you kindly share the measured percentage of the remaining compound for CCCC1O[C@@H]2C[C@H]3[C@@H]4CCC5=CC(=O)C=C[C@]5(C)[C@H]4[C@@H](O)C[C@]3(C)[C@]2(C(=O)COCN(C)C(=O)CNC(=O)OCc2ccc(NC(=O)[C@H](CCCNC(N)=O)NC(=O)[C@@H](NC(=O)CCOCCOCCOCCOCCNC(=O)CCC(=O)N3Cc4ccccc4-c4c(nnn4CCOCCOCCOCCOCCC(=O)NCCS(=O)(=O)O)-c4ccccc43)C(C)C)cc2)O1 (stereo partly shown) ?
OUTPUT: 100
